- Target: CA IX (Homo sapiens, UniProt Q16790)
- Assay: biochemical
- Particulars: experimental value used for the QSPR model, library compounds (IDs A…, B…); equals log10 of Ki in nM; read-out: pKi (exp.) (converted)
Result Type: Ki
Field: value (include unit after the number)

Solved cases (3 shown):
{"Compound": "COC(=O)C(=O)[C@H]1C(=O)Nc2ccccc21 [B0865]", "Target": "CA IX (Homo sapiens, UniProt Q16790)", "Reading": "8020 nM"}
{"Compound": "COC(=O)[C@@H]1O[C@H](S(N)(=O)=O)[C@@H](OC(C)=O)[C@H](OC(C)=O)[C@@H]1OC(C)=O [B0808]", "Target": "CA IX (Homo sapiens, UniProt Q16790)", "Reading": "4150 nM"}
{"Compound": "NS(=O)(=O)c1ccc(N[C@H]2SC[C@@H](c3ccc(Cl)cc3Cl)N2C2CCCCC2)cc1 [B0713]", "Target": "CA IX (Homo sapiens, UniProt Q16790)", "Reading": "342 nM"}

Continue with the compound presented below.
Lookup: Request - read-out Ki | tested on CA IX (Homo sapiens, UniProt Q16790) | compound CC(=O)O[C@@H]1O[C@@H](COS(N)(=O)=O)[C@H](OC(C)=O)[C@@H](OC(C)=O)[C@H]1OC(C)=O [B0512]
Found: 72.9 nM

* * *

- Target: CA IX (Homo sapiens)
- Assay: biochemical
- Particulars: library compounds with IDs A… and B…; from observed Ki (nM)
Measured log10 of Ki in nM by item

Lookup: Please give the measured log10 of Ki in nM for this molecule: `Cc1cc(C)cc(NC(=O)Nc2ccc3c(C)cc(=O)oc3c2)c1`
Found: 2.785

Lookup: Name the reported log10 of Ki in nM value associated with the molecule `COc1ccc(NC(=S)Nc2c(C#N)c(-c3ccc(Br)cc3)cn2-c2ccc(S(N)(=O)=O)cc2)cc1`
Found: 2.149

Lookup: What value of log10 of Ki in nM has been reported for the following molecule? `C=CCOc1cc(=S)oc2ccccc12`
Found: 3.483

* * *

- Target: CA IX (Homo sapiens, UniProt Q16790)
- Assay: biochemical
- Particulars: library compounds with IDs A… and B…; from observed Ki (nM)
Result Type: log10 of Ki in nM
Give the value as a plain number.

{"Molecule": "Cc1ccc(-c2cnc(C3CC3)o2)cc1S(N)(=O)=O [A1938]", "log10 of Ki in nM": 2.502}
{"Molecule": "NS(=O)(=O)c1ccc(-n2cc(-c3ccc(Br)cc3)c3c2N=CN2NC(=O)CN=C32)cc1", "log10 of Ki in nM": 1.068}
{"Molecule": "Fc1ccc(-c2nn(-c3ccccc3)cc2-c2nc3ccccc3[nH]2)cc1", "log10 of Ki in nM": 1.813}

Lookup: Field request: log10 of Ki in nM | item: Cc1ccc(-c2cnc(C3CC3)o2)cc1S(N)(=O)=O [B0710]
Found: 2.502

Lookup: I am curious: what log10 of Ki in nM value has been reported for `Cc1nnnn1-c1ccc2c(c1)C=CS(=O)(=O)O2` ?
Found: 1.819

* * *

- Target: CA IX (Homo sapiens)
- Assay: biochemical
- Particulars: experimental value from the library Ki (IDs A…, B…); values equal log10 of Ki in nM
Result Type: log10 of Ki in nM
Give the figure by itself; no unit, no explanation.

These solved cases illustrate the format of a correct answer.
{"Compound": "COc1ccc2c(c1)/C(=N/c1ccc(C(=O)Nc3ccc(S(N)(=O)=O)cc3)cc1)C(=O)N2 [A1756, reference compound]", "Target": "CA IX (Homo sapiens)", "log10 of Ki in nM": 2.243}
{"Compound": "CCCCC(=O)OC[C@H]1O[C@@H](n2cc(-c3ccc(S(N)(=O)=O)cc3)nn2)[C@H](OC(=O)CCCC)[C@@H](OC(=O)CCCC)[C@H]1OC(=O)CCCC [A1944]", "Target": "CA IX (Homo sapiens)", "log10 of Ki in nM": 2.525}

Lookup: Can you share its log10 of Ki in nM? I mean this compound: CCOC(=O)NC(=S)N(CC(=O)c1ccccc1)c1ccc(S(N)(=O)=O)cc1 [A0977]
Found: 1.398

Lookup: I am curious: what log10 of Ki in nM value has been reported for CN(C)c1ccc(/N=N/c2ccc(S(N)(=O)=O)cc2)cc1 [A0408] ?
Found: 0.820

Lookup: I'd like to know its log10 of Ki in nM. The compound in question is Cc1ccc(-c2cc(CO)nn2-c2ccc(S(N)(=O)=O)cc2)cc1 [A0902]
Found: 1.342

Lookup: Name the recorded log10 of Ki in nM for CCCN(CCC)S(=O)(=O)c1ccc(C(=O)N[C@@H](Cc2c[nH]c3ccccc23)C(N)=O)cc1 [A0923] .
Found: 1.362

Lookup: May I ask what log10 of Ki in nM has been recorded for COc1ccc(-c2cc(CO)nn2-c2ccc(S(N)(=O)=O)cc2)cc1 [A0859] ?
Found: 1.301

Lookup: Quick one: log10 of Ki in nM of N#C/C(=C\c1ccc2c(c1)OCO2)C(=O)Nc1ccc(S(N)(=O)=O)cc1 [A0636] ?
Found: 0.978

* * *

- Target: CA IX (Homo sapiens)
- Assay: biochemical
- Particulars: read-out: pKi (exp.) (converted)
Threshold-based label: Ki under 0.1 µM gives yes (1), Ki not under 0.1 µM gives no (0).

{"Compound Smiles": "CCOC(=O)c1cc(S(N)(=O)=O)c(SSc2cc(Cl)c(C(=O)OCC)cc2S(N)(=O)=O)cc1Cl", "Assigned Category": "no (0)"}
{"Compound Smiles": "CC(=O)OC[C@@H]1O[C@@H](NS(N)(=O)=O)C[C@@H](OC(C)=O)[C@@H]1OC(C)=O", "Assigned Category": "yes (1)"}
{"Compound Smiles": "COc1cc(/C=C\\C(=O)OCCCCO[N+](=O)[O-])ccc1OC(=O)c1cccc(S(=O)(=O)Nc2nnc(S(N)(=O)=O)s2)c1", "Assigned Category": "no (0)"}
{"Compound Smiles": "C[C@H](Nc1nc(NCc2ccc(S(N)(=O)=O)cc2)nc(N[C@H](C)C(=O)O)n1)C(=O)O", "Assigned Category": "yes (1)"}
{"Compound Smiles": "Nc1nc(=O)[nH]c2c1c(-c1ccc(Br)cc1)cn2-c1ccc(S(N)(=O)=O)cc1", "Assigned Category": "yes (1)"}

Lookup: I'd appreciate it if you could check whether `NS(=O)(=O)c1ccc(C(=O)OCc2cn([C@@H]3O[C@H](CO)[C@@H](O)[C@@H](O)[C@@H]3O)nn2)cc1` has Ki smaller than 0.1 µM.
Found: yes (1)

Lookup: # TODO verify Ki < 0.1 µM strictly for this compound: `NS(=O)(=O)c1ccc(-n2cc(/C=N/Nc3nc(-c4cc5cc(Br)ccc5oc4=O)cs3)c(-c3ccccc3)n2)cc1`
Found: yes (1)

* * *

- Target: CA IX (Homo sapiens, UniProt Q16790)
- Assay: Stopped-flow CA-catalysed CO2 hydration inhibition assay
- Type: biochemical
- Particulars: sulphonamides with IDs C...; read-out: Ki
Result Type: Ki

Lookup: Ki for `Cc1cc(S(=O)(=O)NC(=N)NCc2ccc(S(N)(=O)=O)cc2)c(SCc2ccccc2)cc1Cl` ?
Found: 23.1 nM

* * *

- Target: UniProt Q16790
- Assay: biochemical
- Particulars: experimental value used for the QSPR model, library compounds (IDs A…, B…); equals log10 of Ki in nM
So basically, if log10 of Ki in nM comes in under 1 it's criterion met, and if it's 1 or more it's criterion not met.

Example cases with answers are listed next.
{"Compound Smiles": "Cc1ccc2c(c1)/C(=N\\c1ccc(C(=O)Nc3ccc(S(N)(=O)=O)cc3)cc1)C(=O)N2", "Target": "UniProt Q16790", "Assigned Category": "criterion not met"}
{"Compound Smiles": "NS(=O)(=O)c1ccc(-n2c(S)nc3cc(F)ccc3c2=O)cc1", "Target": "UniProt Q16790", "Assigned Category": "criterion met"}
{"Compound Smiles": "CC(=O)OC[C@H]1O[C@@H](SCc2nnn(-c3ccc(S(N)(=O)=O)cc3)c2C#CCO)[C@H](OC(C)=O)[C@@H](OC(C)=O)[C@@H]1OC(C)=O", "Target": "UniProt Q16790", "Assigned Category": "criterion not met"}
{"Compound Smiles": "CC(C)(C)OC(=O)NCCCCOc1ccc(S(N)(=O)=O)cc1", "Target": "UniProt Q16790", "Assigned Category": "criterion met"}

Lookup: Determine whether this compound shows log10 of Ki in nM lower than 1 (ties excluded): `NS(=O)(=O)c1cc(-c2cnc(C(=O)N3CCOCC3)o2)cs1`
Found: criterion not met

Lookup: Dear reviewer, please state whether `Cc1cc(C)oc(=O)c1` has log10 of Ki in nM strictly beneath 1.
Found: criterion not met

Lookup: Item `NS(=O)(=O)c1ccc2nc(-n3cc(C=O)c(-c4ccc(F)cc4)n3)sc2c1` : log10 of Ki in nM beneath 1, strictly?
Found: criterion not met

Lookup: Strictly below 1: is that where log10 of Ki in nM of `CC(=O)N1C(=O)/C(=N\n2cnc3c(c(-c4ccc(Br)cc4)cn3-c3ccc(S(N)(=O)=O)cc3)c2=N)c2ccccc21` sits?
Found: criterion met

Lookup: log10 of Ki in nM under 1? Item: `O=S1(=O)C=Cc2cc(-n3cnnn3)ccc2O1`
Found: criterion not met

Values from paper PMC6151961
